test: qHTS for Inhibitors of the Functional Ribonucleoprotein Complex (vRNP) of Lassa (LASV) Arenavirus: Viability assay - alamar blue signal for LASV Primary Screen (AID 1347083); conditions: cell viability, alamar blue fluorescence (LASV minigenome counter-screen); series mostly up to 57.5 µM; also: nearly all actives have a fitted effect of over 80% in size; also: potency is read from the fitted curve at half-maximal effect
Records with an inconclusive call do not appear. Activity calls are given as the source filed them. Calls follow the shape of the full dose curve; tested in HEK293 reporter line.
experimental-endpoint: Potency

# annotated cases, reported Potency shown
1. O=c1cc(CN2CCOCC2)occ1OCCCCCSc1ccnc2cc(C(F)(F)F)ccc12    1.93 µM (active)
2. CC1(C)CC/C(=C/c2ccc(Cl)cc2)C1(O)Cn1cncn1 (stereo not given)    inactive
3. COc1cc2ncn(-c3cc(OCc4ccccc4C(F)(F)F)c(C(N)=O)s3)c2cc1OC    1.72 µM (active)
4. CCN1CCN(Cc2ccc(-c3cc4c(N[C@H](C)c5ccccc5)ncnc4[nH]3)cc2)CC1    0.0077 µM (active)
5. O=[N+]([O-])c1c(Cl)c(Cl)cc(Cl)c1Cl    inactive

List Potency for every entry below, keeping the order given.
1. CCCCC/C(C=O)=C\c1ccccc1
2. CC(C)C[C@H](NC(=O)[C@@H](O)[C@H](N)Cc1ccccc1)C(=O)O

Resp:
["inactive", "inactive"]

List Potency for every entry below, keeping the order given.
1. CC(=O)Nc1ccc(O)cc1
2. N#C/C(=C1\SCC(c2ccccc2Cl)S1)n1ccnc1 (stereo not given)
3. Oc1c(I)cc(I)c2cccnc12

Resp:
1: inactive; 2: inactive; 3: inactive
